These entries and their values trace back to ChEMBL document CHEMBL1147942.

Would you kindly list IC50 for each of these molecules?
target: Phosphodiesterase 4 (Homo sapiens, UniProt P27815+Q08499+Q07343+Q08493); assay: Inhibition of PDE4 in U937 cells; assay type: cell-based; conditions: u-937
Give bare numbers, in nM.

[
  {
    "Structure Notation": "c1c(N2CCCCCC2)nc(C2CC2)nc1N1CCC1",
    "Quantitative Result": 790
  },
  {
    "Structure Notation": "Cc1c(N2CCCCCC2)nc(C2CC2)nc1N1CC(C#N)C1",
    "Quantitative Result": 1000
  },
  {
    "Structure Notation": "FC1CN(c2cc(N3CCCCCC3)nc(C3CC3)n2)C1",
    "Quantitative Result": 200
  },
  {
    "Structure Notation": "CC1CN(c2cc(N3CCCCCC3)nc(C3CC3)n2)C1",
    "Quantitative Result": 2000
  },
  {
    "Structure Notation": "Cc1c(N2CCCCCC2)nc(C2CC2)nc1N1CCC1",
    "Quantitative Result": 320
  },
  {
    "Structure Notation": "Cc1c(N2CCCCCC2)nc(C2CC2)nc1N1CCCC1",
    "Quantitative Result": 3200
  }
]

Hey, quick one: what's IC50 for each of these?
1. Cc1c(N2CCCCCC2)nc(C2CC2)nc1N1CC(F)C1
2. Cc1c(N2CCCCCC2)nc(C2CC2)nc1N1CC(C)C1
3. Cc1c(N2CCCCCC2)nc(C2CC2)nc1N1CC(C)(C)C1
4. Cc1c(N2CCCCCC2)nc(C2CC2)nc1N1CC(O)C1
5. Cc1c(N2CCCCCC2)nc(C2CC2)nc1N1CC(=O)C1
6. COC1CN(c2nc(C3CC3)nc(N3CCCCCC3)c2C)C1

1: 79; 2: 790; 3: 5000; 4: 630; 5: 500; 6: 4000
